Data provenance: ChEMBL document CHEMBL1142671

- System: Staphylococcus aureus
- assay_explanation: In vitro minimum inhibitory concentration against Staphylococcus aureus ATCC 6538P was determined
- Type: functional
measured_property: MIC (µg/mL)
Supply the numeric figure in µg/mL, leaving out any unit text.

Could you tell me which MIC is on file for CC1Cc2cc(N3CCNCC3)c(F)cc2-c2cc(=O)c(C(=O)O)cn21 (centres undefined) ?
25

Could you tell me which MIC is on file for `C[C@H]1Cc2ccccc2-c2cc(=O)c(C(=O)O)cn21` ?
50

Could you tell me which MIC is on file for `C[C@@H]1Cc2ccccc2-c2cc(=O)c(C(=O)O)cn21` ?
25

Could you tell me which MIC is on file for O=C(O)c1cn(C2CC2)c2cc(N3CCNCC3)c(F)cc2c1=O [CIPROFLOXACIN] ?
0.2
